System Name: GDP-bound KRAS protein (aa 1-169), containing both G12D and C118A amino acid substitutions (Homo sapiens (Human), UniProt P01116, C118A/G12D)
Sequence (P01116 other isoform, or with tags, fused parts or gaps G12D/C118A): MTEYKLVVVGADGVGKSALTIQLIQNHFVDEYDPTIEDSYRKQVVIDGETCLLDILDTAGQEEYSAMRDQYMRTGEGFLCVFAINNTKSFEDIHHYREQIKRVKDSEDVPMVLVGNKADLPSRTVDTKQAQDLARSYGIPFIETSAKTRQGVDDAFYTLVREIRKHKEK
Test: KRAS G12D Coupled Nucleotide Exchange Assay
Type: biochemical
Details: read-out: KRAS G12D Coupled Exchange IC50
Protocol: KRAS G12D Coupled Nucleotide Exchange Assay Following compound pre-incubation, purified SOS protein (aa 564-1049) and GTP (Roche 10106399001) were added to the assay wells and incubated for an additional 30 min. […] The assay plates were then read on a PerkinElmer EnVision Multilabel Reader, using AlphaScreen® technology, and data were analyzed using a 4-parameter logistic model to calculate IC50 values.
Property Name: IC50 (nM)

Recorded IC50, per entry:
Compound	IC50 (nM)
CN(C)CC1(COc2nc3c4cnc(c(F)c4n2)-c2c(c(Cl)cc4[nH]ncc24)CCOC(=O)O[C@H]2C[C@]4(CCCN3C4)C2)CC1	1
Cn1ncc2cc(Cl)c3c(c21)-c1ncc2c(nc(OC[C@@]45CCCN4C[C@H](F)C5)nc2c1F)N1CCOC[C@H](C1)OC(=O)OCCC3 [Example 364]	20
C[C@@]12COCCN(C1)c1nc(OC[C@@]34CCCN3C[C@H](F)C4)nc3c(F)c(ncc13)-c1cccc(Cl)c1CCCOC(=O)O2	4

P. CN1C(=O)CCCCc2c(Cl)cc3[nH]ncc3c2-c2cc3nc(OC[C@@]45CCCN4C[C@H](F)C5)nc(c3nn2)N2CCC[C@@H]1C2
Q. Fc1c2ncc3c(nc(OC[C@@]45CCCN4C[C@H](F)C5)nc13)N1CCC[C@H](C1)Cn1ncc(n1)CCc1c(Cl)cc3[nH]ncc3c1-2
R. C[C@@]12CCCN(C1)c1nc(OC[C@@]34CCCN3C[C@H](F)C4)nc3c(F)c(ncc13)-c1cccc3ccc(F)c(c13)CCOC(=O)N2
Request: rank_up(items): orders items by reported IC50 in ascending numerical order. Record the ranking as a list of labels in the requested order.
Result: Q, R, P
(Q: 3 nM, R: 7 nM, P: 20 nM)

###

System Name: His-tagged KRAS G12D protein (Homo sapiens (Human), UniProt P01116, G12D)
Sequence (P01116 other isoform, or with tags, fused parts or gaps G12D): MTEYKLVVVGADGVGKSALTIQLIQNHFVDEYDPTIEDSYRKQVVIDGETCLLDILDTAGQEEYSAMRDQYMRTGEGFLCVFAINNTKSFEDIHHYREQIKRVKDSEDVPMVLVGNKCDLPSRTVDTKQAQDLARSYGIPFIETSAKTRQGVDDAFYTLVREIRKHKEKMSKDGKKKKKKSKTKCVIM
Test: KRAS G12D TR-FRET Assay
Format: binding
Details: read-out: KRAS G12D Binding IC50
pIC50: −log10 of the molar value.
Property Name: pIC50

Recorded pIC50, per entry:
Compound	pIC50
O=C1COCCCc2c(Cl)cc3[nH]ncc3c2-c2ncc3c(nc(OC[C@@]45CCCN4C[C@H](F)C5)nc3c2F)N2CC[C@H]3CCN1[C@H]3C2	8.52
O=C1C[C@H]2CN(CCO2)c2nc(OC[C@@]34CCCN3C[C@H](F)C4)nc3c(F)c(ncc23)-c2c(c(Cl)cc3[nH]ncc23)CCCO1	8.40

A. O[C@@H]1C[C@@H]2CN(C1)c1nc(OC[C@@]34CCCN3C[C@H](F)C4)nc3c(F)c(ncc13)-c1c(c(Cl)cc3[nH]ncc13)CCCn1ncc2n1 (single isomer, unassigned) [Example 300]
B. Cc1cc2[nH]ncc2c2c1[C@H]1C[C@H]1COC(=O)O[C@@H]1CCCN(C1)c1nc(OC[C@@]34CCCN3C[C@H](F)C4)nc3c(F)c-2ncc13
C. Fc1c2ncc3c(nc(OC[C@@]45CCCN4C[C@H](F)C5)nc13)N1CCC[C@@H](COCCOCc3c(Cl)cc4[nH]ncc4c3-2)C1
Request: rank_up(items): orders items by reported pIC50 in ascending numerical order. Record the ranking as a list of labels in the requested order.
Result: C, A, B
(C: 7.77, A: 8.00, B: 8.52)

###

System Name: GDP-bound KRAS protein (aa 1-169), containing both G12D and C118A amino acid substitutions (Homo sapiens (Human), UniProt P01116, C118A/G12D)
Test: KRAS G12D Coupled Nucleotide Exchange Assay
Type: biochemical
Details: read-out: KRAS G12D Coupled Exchange IC50
Property Name: IC50 (nM)

Compound	IC50, nM
COc1nc2c3cnc(c(F)c3n1)-c1cc(O)cc3ccc(F)c(c13)CCCC(=O)N[C@]1(C)CCCN2C1 [Example 6, bis(2,2,2-trifluoroacetate)]	125
Cc1cc2[nH]ncc2c2c1/C=C\COC(=O)O[C@@H]1CCCN(C1)c1nc(OC[C@@]34CCCN3C[C@H](F)C4)nc3c(F)c-2ncc13 (single isomer, unassigned) [Example 123]	4
O=C1C[C@H]2CN(CCO2)c2nc(OC[C@@]34CCCN3C[C@H](F)C4)nc3c(F)c(ncc23)-c2c(c(Cl)cc3[nH]ncc23)CCCO1 [Example 79]	3
OC1CCCCc2c(Cl)cc3[nH]ncc3c2-c2ncc3c(nc(OC[C@@]45CCCN4C[C@H](F)C5)nc3c2F)N2CCOCC(C1)C2 (stereo partly drawn) [Example 235]	125

A. O=C1OCCc2c(Cl)cc3[nH]ncc3c2-c2ncc3c(nc(OC[C@@]45CCCN4C[C@H](F)C5)nc3c2F)N2CCOCC(CO1)C2 (stereo partly drawn) [Example 220]
B. C[C@@]12CCCN(C1)c1nc(OC[C@@]34CCCN3C[C@H](F)C4)nc3c(F)c(ccc13)-c1cc(O)cc3ccc(F)c(c13)CCCC(=O)N2 [Example 16, bis(2,2,2-trifluoroacetate)]
Request: Dear colleague, could you let me know whether A or B has the lower recorded IC50? Thanks. Your answer should be the label attached to the chosen record.
Result: A

###

System Name: His-tagged KRAS G12D protein (Homo sapiens (Human), UniProt P01116, G12D)
Test: KRAS G12D TR-FRET Assay
Format: binding
Details: read-out: KRAS G12D Binding IC50
Structures can show the parent of a compound that is named as a salt.
Property Name: IC50 (nM)

Compound	IC50 / nM
O=C1CCCc2cccc3cc(O)cc(c23)-c2ncc3c(nc(OC[C@@]45CCCN4C[C@H](F)C5)nc3c2F)N2CCC[C@H](C2)N1 [Example 1, bis(2,2,2-trifluoroacetate)]	5
O=C1CCCCc2c(Cl)cc3[nH]ncc3c2-c2ncc3c(nc(OC[C@@]45CCCN4C[C@H](F)C5)nc3c2F)N2CCOCC(C1)C2 (mixture of isomers)	12
C[C@@]12CCCN(C1)c1nc(OC[C@@]34CCCN3C[C@H](F)C4)nc3c(F)c(ncc13)-c1cc(O)cc3cccc(c13)CCCCC(=O)N2 [Example 8, (2,2,2-trifluoroacetate) salt]	8
Fc1c2ncc3c(nc(OC[C@@]45CCCN4C[C@H](F)C5)nc13)N1CCOC[C@]3(C1)C[C@@H](C3)OCCCCc1c(Cl)cc3[nH]ncc3c1-2	6
Cc1cc2[nH]ncc2c2c1CCCCCC(=O)O[C@@H]1CCCN(C1)c1nc(OC[C@@]34CCCN3C[C@H](F)C4)nc3c(F)c-2ncc13	220

1. CN1C[C@H](F)C[C@H]1COc1nc2c3cnc(c(F)c3n1)-c1c(c(Cl)cc3[nH]ncc13)CCOC(=O)O[C@H]1C[C@@]3(CCCN2C3)C1
2. Cc1cc2[nH]ncc2c2c1CCCC(=O)OCCC1CCCN(C1)c1nc(OC[C@@]34CCCN3C[C@H](F)C4)nc3c(F)c-2ncc13 (some centres unmarked)
Request: Endpoint returns the identifier whose IC50 is numerically larger, either 1 or 2 . Your answer should be the label attached to the chosen record.
Result: 2

###

Test system: Phosphorylation of ERK1/2 in AsPC-1 cells
Test: Phospho-ERK1/2 MSD Assay
Assay type: cell-based, human
Details: 2 h, read-out: 2 h p-ERK (AsPC-1 cells), IC50
pIC50: −log10 of the molar value.
Property Name: pIC50

Recorded pIC50, per entry:
Molecule	System Name	pIC50
Fc1c2ncc3c(nc(OC[C@@]45CCCN4C[C@H](F)C5)nc13)N1CCO[C@@H](COCCCCc3c(Cl)cc4[nH]ncc4c3-2)C1 [Example 135]	Phosphorylation of ERK1/2 in AsPC-1 cells	7.77
O=C1OCCCc2c(Cl)cccc2-c2ncc3c(nc(OC[C@@]45CCCN4C[C@H](F)C5)nc3c2F)N2CCOC[C@H](C2)O1 [Example 186]	Phosphorylation of ERK1/2 in AsPC-1 cells	6.70
O[C@@H]1C[C@@H]2CN(C1)c1nc(OC[C@@]34CCCN3C[C@H](F)C4)nc3c(F)c(ncc13)-c1c(c(Cl)cc3[nH]ncc13)CCCn1ncc2n1 (single isomer, unassigned) [Example 299]	Phosphorylation of ERK1/2 in AsPC-1 cells	6.33

P. Cc1c2ncc3c(nc(OC[C@@]45CCCN4C[C@H](F)C5)nc13)N1CCOC[C@H](C1)OC(=O)OCCCc1c(Cl)cc3[nH]ncc3c1-2 (atropisomer, axis not shown) [Example 342]
Q. Cc1cc2[nH]ncc2c2c1CCCOC(=O)CC1CCCN(C1)c1nc(OC[C@@]34CCCN3C[C@H](F)C4)nc3c(F)c-2ncc13 (some centres unmarked) [Example 39]
Request: Dear colleague, could you let me know whether P or Q has the lower recorded pIC50? Thanks. Your answer should be the label attached to the chosen record.
Result: P

Values from patent US20240294551A1
